Data provenance is ChEMBL document CHEMBL5729675.

target: Ribonucleotide reductase (Homo sapiens, UniProt P23921+Q7LG56); assay: Human RNR Inhibition Effect: The inhibitory activity against the ribonucleotide reduction reaction (hereinafter referred to as RNR reaction) of the test compound was determined by measuring the formation of deoxycytidine diphosphate (hereinafter referred to as dCDP) from cytidine diphosphate (hereinafter referred to as CDP) by the following method.Human M1 subunit and human M2 subunit (mutant …
Sequence (P23921 whole entry, looked up): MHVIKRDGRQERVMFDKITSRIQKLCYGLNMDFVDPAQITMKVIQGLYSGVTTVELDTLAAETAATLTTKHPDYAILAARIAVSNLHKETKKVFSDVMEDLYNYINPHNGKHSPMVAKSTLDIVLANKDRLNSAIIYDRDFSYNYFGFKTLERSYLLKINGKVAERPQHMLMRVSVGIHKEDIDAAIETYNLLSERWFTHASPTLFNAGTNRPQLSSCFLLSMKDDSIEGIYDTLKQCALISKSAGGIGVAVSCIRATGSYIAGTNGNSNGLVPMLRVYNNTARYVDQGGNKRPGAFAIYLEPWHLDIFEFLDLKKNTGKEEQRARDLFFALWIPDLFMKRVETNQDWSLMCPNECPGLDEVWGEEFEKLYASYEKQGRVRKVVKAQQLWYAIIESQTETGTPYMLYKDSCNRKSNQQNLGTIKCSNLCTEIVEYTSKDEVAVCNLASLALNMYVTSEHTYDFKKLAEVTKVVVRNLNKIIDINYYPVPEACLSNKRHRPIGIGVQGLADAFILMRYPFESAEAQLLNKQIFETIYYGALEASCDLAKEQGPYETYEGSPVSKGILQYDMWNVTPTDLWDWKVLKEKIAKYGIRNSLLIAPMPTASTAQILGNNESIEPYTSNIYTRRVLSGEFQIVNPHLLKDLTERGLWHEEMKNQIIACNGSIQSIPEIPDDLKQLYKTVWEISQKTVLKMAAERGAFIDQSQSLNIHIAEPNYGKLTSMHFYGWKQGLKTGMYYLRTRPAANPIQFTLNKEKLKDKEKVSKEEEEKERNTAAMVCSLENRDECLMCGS
Sequence (Q7LG56 whole entry, looked up): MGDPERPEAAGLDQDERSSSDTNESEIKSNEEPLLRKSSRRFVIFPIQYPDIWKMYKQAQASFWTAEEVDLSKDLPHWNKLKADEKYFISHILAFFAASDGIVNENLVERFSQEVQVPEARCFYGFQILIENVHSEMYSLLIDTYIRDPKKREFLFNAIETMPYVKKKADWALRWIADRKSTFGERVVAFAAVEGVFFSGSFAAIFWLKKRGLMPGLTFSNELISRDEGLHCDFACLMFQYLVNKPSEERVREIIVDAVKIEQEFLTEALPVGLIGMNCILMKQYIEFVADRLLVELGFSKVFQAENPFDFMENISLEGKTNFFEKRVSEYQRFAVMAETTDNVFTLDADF
ASSAY ENDPOINT: IC50 (nM)

COMPOUND: Cc1cc(F)cc([C@@H](C)[C@H](NS(=O)(=O)c2ccc(Cl)cc2C(N)=O)c2n[nH]c(=O)o2)c1C
TARGET OR TEST SYSTEM: Ribonucleotide reductase (Homo sapiens, UniProt P23921+Q7LG56)
IC50 [nM]: 450
--
COMPOUND: COc1ccc(-c2ccc(F)c([C@@H](C)[C@H](NS(=O)(=O)c3ccc(Cl)cc3OC)c3n[nH]c(=O)o3)c2C)cn1
TARGET OR TEST SYSTEM: Ribonucleotide reductase (Homo sapiens, UniProt P23921+Q7LG56)
IC50 [nM]: 260
--
COMPOUND: Cc1ccc(F)c([C@@H](C)[C@H](NS(=O)(=O)c2ccc3c(c2)CCCO3)c2n[nH]c(=O)o2)c1C
TARGET OR TEST SYSTEM: Ribonucleotide reductase (Homo sapiens, UniProt P23921+Q7LG56)
IC50 [nM]: 320
--
COMPOUND: COc1cc(Cl)ccc1S(=O)(=O)N[C@H](c1n[nH]c(=O)o1)[C@H](C)c1cccc2c1CC(C)C2 (stereo partly specified)
TARGET OR TEST SYSTEM: Ribonucleotide reductase (Homo sapiens, UniProt P23921+Q7LG56)
IC50 [nM]: 700
--
COMPOUND: COc1cc(Cl)ccc1S(=O)(=O)N[C@H](c1n[nH]c(=O)o1)[C@H](C)c1c(F)ccc(C#N)c1C
TARGET OR TEST SYSTEM: Ribonucleotide reductase (Homo sapiens, UniProt P23921+Q7LG56)
IC50 [nM]: 840
--
COMPOUND: CCc1cccc([C@@H](C)[C@H](NS(=O)(=O)c2ccc(Cl)cc2OC)c2n[nH]c(=O)o2)c1C
TARGET OR TEST SYSTEM: Ribonucleotide reductase (Homo sapiens, UniProt P23921+Q7LG56)
IC50 [nM]: 400
--
COMPOUND: COc1cc(C(N)=O)c(S(=O)(=O)N[C@H](c2n[nH]c(=O)o2)[C@H](C)c2c(F)ccc(C)c2C)cc1OC
TARGET OR TEST SYSTEM: Ribonucleotide reductase (Homo sapiens, UniProt P23921+Q7LG56)
IC50 [nM]: 360
--
COMPOUND: Cc1ccc(F)c([C@@H](C)[C@H](NS(=O)(=O)c2ccc3c(c2)OCCO3)c2n[nH]c(=O)o2)c1C
TARGET OR TEST SYSTEM: Ribonucleotide reductase (Homo sapiens, UniProt P23921+Q7LG56)
IC50 [nM]: 130

P = C[C@H](c1cccc2c1CCC2)[C@H](NS(=O)(=O)c1ccc(Br)cc1F)c1n[nH]c(=O)o1
Q = Cc1ccc(F)c([C@@H](C)[C@H](NS(=O)(=O)c2cc(C(=O)N(C)C)ccc2C(N)=O)c2n[nH]c(=O)o2)c1C
q: I would appreciate it if you could say which entry, P or Q , has the lower IC50 value. Record your answer as the label of the chosen record.
a: Q

A = Cc1ccc(F)c([C@@H](C)[C@H](NS(=O)(=O)c2ccc(Cl)c3c2C(O)CCC3)c2n[nH]c(=O)o2)c1C (stereo partly specified)
B = Cc1ccc(F)c([C@@H](C)[C@H](NS(=O)(=O)c2ccc(C(F)(F)F)cc2C(N)=O)c2n[nH]c(=O)o2)c1C
q: I would appreciate it if you could say which entry, A or B , has the lower IC50 value. Record your answer as the label of the chosen record.
a: B
(B: 100 nM, A: 910 nM)
